System: Botrytis cinerea
assay.notes: Eggplant grey mold
Assay type: in vivo
Set-up: scale not given here
condition.notes: eggplant sprayed with 500 ppm, inoculated 24 h later, rated after 3-4 days
// values below are reported Disease Control Rating at 500 ppm
measure: Disease Control Rating at 500 ppm

[[record]]
input_smiles = "Cn1cc(C(=O)Nc2ccccc2SC2CCCCC2)c(C(F)F)n1"
measure = "Disease Control Rating at 500 ppm"
readout_value = 1

[[record]]
input_smiles = "Cn1cc(C(=O)Nc2ccccc2C2=CCOCC2)c(C(F)F)n1"
measure = "Disease Control Rating at 500 ppm"
readout_value = 0

[[record]]
input_smiles = "C[C@@H]1CCC[C@H](C)[C@@H]1Oc1ccccc1NC(=O)c1cn(C)nc1C(F)(F)F"
measure = "Disease Control Rating at 500 ppm"
readout_value = 1

[[record]]
input_smiles = "Cn1cc(C(=O)Nc2cc(Br)cc(Br)c2C2CCCCC2)c(C(F)(F)F)n1"
measure = "Disease Control Rating at 500 ppm"
readout_value = 1

[[record]]
input_smiles = "Cc1nn(C)cc1C(=O)Nc1ccccc1C1CCCCCCC1"
measure = "Disease Control Rating at 500 ppm"
readout_value = 3


====

test.target: succinate dehydrogenase (Botrytis cinerea, UniProt A0A384J5E4+A0A384J8V8+A0A384JHJ5)
Construct: succinate-DCPIP reductase assay with KCN
Sequence (A0A384J5E4 1-300): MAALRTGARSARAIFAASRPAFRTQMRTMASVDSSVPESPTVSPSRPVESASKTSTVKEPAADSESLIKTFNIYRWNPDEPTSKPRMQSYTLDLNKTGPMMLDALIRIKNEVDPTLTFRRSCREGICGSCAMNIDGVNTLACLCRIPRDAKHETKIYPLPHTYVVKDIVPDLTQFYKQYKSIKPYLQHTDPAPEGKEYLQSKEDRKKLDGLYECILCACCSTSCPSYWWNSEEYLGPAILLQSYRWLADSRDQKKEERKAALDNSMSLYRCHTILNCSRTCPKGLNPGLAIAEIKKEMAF
Sequence (A0A384J8V8 1-189): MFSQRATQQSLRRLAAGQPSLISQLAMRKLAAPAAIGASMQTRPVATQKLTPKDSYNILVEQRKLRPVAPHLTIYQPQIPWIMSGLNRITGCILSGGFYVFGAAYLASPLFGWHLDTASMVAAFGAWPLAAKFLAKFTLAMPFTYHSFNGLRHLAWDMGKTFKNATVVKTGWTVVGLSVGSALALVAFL
Sequence (A0A384JHJ5 1-192): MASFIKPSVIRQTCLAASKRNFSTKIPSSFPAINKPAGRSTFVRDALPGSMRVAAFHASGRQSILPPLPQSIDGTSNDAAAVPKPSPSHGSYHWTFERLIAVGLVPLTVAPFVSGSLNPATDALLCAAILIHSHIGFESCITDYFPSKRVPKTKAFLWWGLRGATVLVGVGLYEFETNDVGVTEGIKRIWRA
Sequence (A0A384K456 1-647 partner): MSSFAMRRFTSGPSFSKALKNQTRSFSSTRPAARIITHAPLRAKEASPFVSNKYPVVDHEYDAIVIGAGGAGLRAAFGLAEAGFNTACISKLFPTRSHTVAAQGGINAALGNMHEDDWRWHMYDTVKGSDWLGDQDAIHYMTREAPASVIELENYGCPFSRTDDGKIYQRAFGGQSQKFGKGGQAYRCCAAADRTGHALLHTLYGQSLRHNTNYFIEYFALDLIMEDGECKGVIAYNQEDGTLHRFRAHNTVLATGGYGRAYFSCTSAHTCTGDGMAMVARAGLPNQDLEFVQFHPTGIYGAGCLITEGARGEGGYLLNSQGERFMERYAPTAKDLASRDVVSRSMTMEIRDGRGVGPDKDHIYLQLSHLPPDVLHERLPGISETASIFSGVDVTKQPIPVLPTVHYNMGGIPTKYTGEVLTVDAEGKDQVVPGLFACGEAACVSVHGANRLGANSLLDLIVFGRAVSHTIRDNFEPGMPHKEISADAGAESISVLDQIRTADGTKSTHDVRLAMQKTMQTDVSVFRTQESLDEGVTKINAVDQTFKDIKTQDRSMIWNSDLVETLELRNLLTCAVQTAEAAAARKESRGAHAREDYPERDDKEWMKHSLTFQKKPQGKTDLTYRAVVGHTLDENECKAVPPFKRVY
assay.notes: Enzyme inhibition: succinate dehydrogenase activity in Botrytis cinerea mitochondria (DCPIP reduction)
Assay type: biochemical
condition.notes: read-out: I50 (μM conc.); concentration required to inhibit the rate of DCPIP reduction by 50%; Botrytis cinerea isolate Nick mitochondria
measure: IC50

[[record]]
input_smiles = "Cn1cc(C(=O)Nc2ccccc2C2=CCCCCCC2)c(C(F)F)n1"
readout_value = "0.0035 µM"


====

Tested on: Botrytis cinerea
assay.notes: Eggplant grey mold
Assay type: in vivo
Design: scale not given here
condition.notes: eggplant sprayed with 20 ppm, inoculated 24 h later, rated after 3-4 days
measure: Disease Control Rating at 20 ppm

[[record]]
compound = "Cn1cc(C(=O)Nc2ccccc2C2CCCCCC2)c(C(F)(F)F)n1"
measure = "Disease Control Rating at 20 ppm"
readout_value = 2

[[record]]
compound = "Cn1cc(C(=O)Nc2ccccc2C2CCCCCCC2)c(C(F)F)n1"
measure = "Disease Control Rating at 20 ppm"
readout_value = 1

[[record]]
compound = "Cn1cc(C(=O)Nc2ccc(F)cc2C2CCCCC2)c(C(F)F)n1"
measure = "Disease Control Rating at 20 ppm"
readout_value = 2

[[record]]
compound = "Cn1cc(C(=O)Nc2ccccc2C2=CCC(C(C)(C)C)CC2)c(C(F)(F)F)n1 (stereo not drawn)"
measure = "Disease Control Rating at 20 ppm"
readout_value = 0

[[record]]
compound = "CC(C)C1=C(c2ccccc2NC(=O)c2cn(C)nc2C(F)(F)F)CCCC1"
measure = "Disease Control Rating at 20 ppm"
readout_value = 0

[[record]]
compound = "Cn1cc(C(=O)Nc2ccccc2C2=CCCCCC2)c(C(F)F)n1"
measure = "Disease Control Rating at 20 ppm"
readout_value = 1

[[record]]
compound = "Cn1cc(C(=O)Nc2ccccc2C2CC(C)(C)CC(C)(C)C2)c(C(F)F)n1"
measure = "Disease Control Rating at 20 ppm"
readout_value = 0

[[record]]
compound = "Cc1nn(C)cc1C(=O)Nc1ccccc1C1CCCCCC1"
measure = "Disease Control Rating at 20 ppm"
readout_value = 1

[[record]]
compound = "Cn1cc(C(=S)Nc2ccccc2C2CCCCC2)c(C(F)F)n1"
measure = "Disease Control Rating at 20 ppm"
readout_value = 0

[[record]]
compound = "CC1C=C(c2ccccc2NC(=O)c2cn(C)nc2C(F)(F)F)CC1 (stereo not drawn)"
measure = "Disease Control Rating at 20 ppm"
readout_value = 0

[[record]]
compound = "Cn1cc(C(=O)Nc2ccccc2C2CC(C)(C)CC(C)(C)C2)c(C(F)(F)F)n1"
measure = "Disease Control Rating at 20 ppm"
readout_value = 0

[[record]]
compound = "Cn1cc(C(=O)Nc2ccccc2[C@@H]2C[C@H]3CC[C@@H]2C3)c(Br)n1 (relative stereo)"
measure = "Disease Control Rating at 20 ppm"
readout_value = 0

[[record]]
compound = "CC1CC=C(c2ccccc2NC(=O)c2cn(C)nc2C(F)(F)F)C1 (stereo not drawn)"
measure = "Disease Control Rating at 20 ppm"
readout_value = 0

[[record]]
compound = "CC1=C(c2ccccc2NC(=O)c2cn(C)nc2C(F)F)C(C)CCC1 (stereo not drawn)"
measure = "Disease Control Rating at 20 ppm"
readout_value = 0

[[record]]
compound = "C[C@@H]1CCC[C@H](c2ccccc2NC(=O)c2cn(C)nc2C(F)(F)F)C1 (relative stereo)"
measure = "Disease Control Rating at 20 ppm"
readout_value = 0

[[record]]
compound = "CC(C)C1CCCC=C1c1ccccc1NC(=O)c1cn(C)nc1C(F)(F)F (stereo not drawn)"
measure = "Disease Control Rating at 20 ppm"
readout_value = 0

[[record]]
compound = "Cn1cc(C(=O)Nc2ccccc2C=C2CCCC2)c(C(F)(F)F)n1"
measure = "Disease Control Rating at 20 ppm"
readout_value = 0

[[record]]
compound = "Cn1nc(C(F)(F)F)c(C(=O)Nc2ccccc2[C@@H]2C[C@H]3CC[C@@H]2C3)c1F (relative stereo)"
measure = "Disease Control Rating at 20 ppm"
readout_value = 0


====

test.target: succinate dehydrogenase (Botrytis cinerea, UniProt A0A384J5E4+A0A384J8V8+A0A384JHJ5)
Construct: succinate-DCPIP reductase assay with KCN
assay.notes: Enzyme inhibition: succinate dehydrogenase activity in Botrytis cinerea mitochondria (DCPIP reduction)
Assay type: biochemical
condition.notes: concentration required to inhibit the rate of DCPIP reduction by 50%; Botrytis cinerea isolate Nick mitochondria; read-out: I50 (μM conc.)
measure: log10(IC50) (log10 of the value in µM)

[[record]]
compound = "Cn1cc(C(=O)Nc2ccccc2C2CCCCCC2)c(C(F)(F)F)n1"
measure = "log10(IC50)"
readout_value = -2.52

[[record]]
compound = "C[C@@H]1CCC[C@H](C)[C@@H]1Oc1ccccc1NC(=O)c1cn(C)nc1C(F)(F)F"
measure = "log10(IC50)"
readout_value = -1.05

[[record]]
compound = "CC(=C1CCCC1)c1ccccc1NC(=O)c1cn(C)nc1C(F)(F)F"
measure = "log10(IC50)"
readout_value = -2.85

[[record]]
compound = "Cc1ccc(NC(=O)c2cn(C)nc2C(F)F)c(C2CCCCC2)c1"
measure = "log10(IC50)"
readout_value = -2.00

[[record]]
compound = "Cn1nc(C(F)F)c(C(=O)Nc2ccccc2C2CCCCCC2)c1Cl"
measure = "log10(IC50)"
readout_value = -2.44

[[record]]
compound = "Cn1cc(C(=O)Nc2ccccc2C2CCCCCC2)c(Cl)n1"
measure = "log10(IC50)"
readout_value = -1.64

[[record]]
compound = "C[C@@H]1CCC[C@@H](C)C1Oc1ccccc1NC(=O)c1cn(C)nc1C(F)(F)F (relative stereo)"
measure = "log10(IC50)"
readout_value = -1.89

[[record]]
compound = "CSc1nn(C)cc1C(=O)Nc1ccccc1C1CCCCC1"
measure = "log10(IC50)"
readout_value = -0.44

[[record]]
compound = "CCC1CCCC(C)=C1c1ccccc1NC(=O)c1cn(C)nc1C(F)(F)F (stereo not drawn)"
measure = "log10(IC50)"
readout_value = -0.89


====

// values below are reported log10 of IC50
test.target: succinate dehydrogenase (Botrytis cinerea, UniProt A0A384J5E4+A0A384J8V8+A0A384JHJ5)
Construct: succinate-DCPIP reductase assay with KCN
assay.notes: Enzyme inhibition: succinate dehydrogenase activity in Botrytis cinerea mitochondria (DCPIP reduction)
Type: biochemical
condition.notes: concentration required to inhibit the rate of DCPIP reduction by 50%; Botrytis cinerea isolate Nick mitochondria; read-out: I50 (μM conc.)
measure: log10 of IC50 (log10 of the value in µM)

[[record]]
molecule = "CCC1CC=C(c2ccccc2NC(=O)c2cn(C)nc2C(F)F)CC1 (centres unmarked)"
readout_value = -2.30

[[record]]
molecule = "Cc1nn(C)cc1C(=O)Nc1ccccc1C1CCCCCCC1"
readout_value = -1.68

[[record]]
molecule = "CC1=C(c2ccccc2NC(=O)c2cn(C)nc2C(F)F)C(C)CCC1 (centres unmarked)"
readout_value = -1.89

[[record]]
molecule = "Cn1cc(C(=O)Nc2ccccc2OCC2CCCC2)c(C(F)F)n1"
readout_value = -1.02

[[record]]
molecule = "Cn1cc(C(=O)Nc2ccccc2C2(C)CCCC2)c(C(F)F)n1"
readout_value = -0.89


====

System: Botrytis cinerea
assay.notes: Vine grey mold (grape berries)
Type: in vivo
condition.notes: grape berries treated with 50 ppm, average of six berries, 7-10 days, read-out: % DISEASE CONTROL 50 ppm
Method: Grape berries, which have been washed and surfaced sterilized in 70% ethanol for one minute, are, except for the negative controls, treated with 0.2 mL of a 2:3 acetone/water formulation (containing 0.05% Tween® 20) of 200 or 50 ppm of the test compounds and placed one per well in 12-well plates. Six berries per treatment level are used. […] Treatment means are calculated and percent disease control is determined by the formula [(control mean - treatment mean)/control means]×100. […]
measure: pest or weed control at 50 ppm (%)

[[record]]
compound = "Cn1cc(C(=O)Nc2ccccc2C2CCC(C(C)(C)C)CC2)c(C(F)(F)F)n1 (stereo not drawn) [Example 135]"
readout_value = 52

[[record]]
compound = "Cn1cc(C(=O)Nc2ccccc2C2CCCCCC2)c(Cl)n1 [Example 51]"
readout_value = 16

[[record]]
compound = "Cc1ccc(C2CCCCC2)c(NC(=O)c2cn(C)nc2C(F)(F)F)c1 [Example 18]"
readout_value = 0

[[record]]
compound = "COc1cccc(NC(=O)c2cn(C)nc2C(F)(F)F)c1C1CCCCCCC1 [Example 37]"
readout_value = 25

[[record]]
compound = "Cn1cc(C(=O)Nc2ccccc2C2=CCCCCCC2)c(C(F)F)n1 [Example 119]"
readout_value = 73

[[record]]
compound = "Cn1cc(C(=O)Nc2ccccc2C2=CCSCC2)c(C(F)F)n1 [Example 144]"
readout_value = 15

[[record]]
compound = "Cc1nn(C)cc1C(=O)Nc1ccccc1C1CCCCC1 [Example 3]"
readout_value = 10

[[record]]
compound = "CCC1CCCC(C)=C1c1ccccc1NC(=O)c1cn(C)nc1C(F)(F)F (stereo not drawn) [Example 138]"
readout_value = 0

[[record]]
compound = "CC1CC=C(c2ccccc2NC(=O)c2cn(C)nc2C(F)F)C1 (stereo not drawn) [Example 149]"
readout_value = 95

[[record]]
compound = "C[C@@H]1CCC[C@@H](C)C1Oc1ccccc1NC(=O)c1cn(C)nc1C(F)(F)F (relative stereo) [Example 75]"
readout_value = 6

[[record]]
compound = "Cc1c(C(=O)Nc2ccccc2[C@@H]2C[C@H]3CC[C@@H]2C3)c(C(F)(F)F)nn1C (relative stereo) [Example 100]"
readout_value = 0

[[record]]
compound = "Cn1cc(C(=O)Nc2ccccc2[C@@H]2C[C@H]3CC[C@@H]2C3)c(Br)n1 (relative stereo) [Example 65]"
readout_value = 47

[[record]]
compound = "Cn1cc(C(=O)Nc2ccccc2OC2CCCCC2)c(C(F)F)n1 [Example 22]"
readout_value = 24

[[record]]
compound = "Cn1cc(C(=O)Nc2ccccc2SC2CCCCC2)c(C(F)(F)F)n1 [Example 45]"
readout_value = 7

[[record]]
compound = "Cn1nc(C(F)(F)F)c(C(=O)Nc2ccccc2C2CCCCCC2)c1F [Example 86]"
readout_value = 66

[[record]]
compound = "Cc1c(C(=O)Nc2ccccc2C2CCCCCC2)c(C(F)(F)F)nn1C [Example 99]"
readout_value = 27

[[record]]
compound = "Cn1cc(C(=O)Nc2ccccc2OC2(C)CCCC2)c(C(F)(F)F)n1 [Example 36]"
readout_value = 14

[[record]]
compound = "Cn1cc(C(=O)Nc2ccccc2OC2CCCCC2)c(C(F)(F)F)n1 [Example 23]"
readout_value = 20

[[record]]
compound = "Cn1cc(C(=O)Nc2ccccc2OC2(C)CCCC2)c(C(F)F)n1 [Example 35]"
readout_value = 42

[[record]]
compound = "Cn1cc(C(=O)Nc2ccccc2C=C2CCCC2)c(C(F)F)n1 [Example 118]"
readout_value = 37

[[record]]
compound = "Cc1nn(C)c(C)c1C(=O)Nc1ccccc1C1CCCCCC1 [Example 66]"
readout_value = 32

[[record]]
compound = "Cn1cc(C(=O)Nc2ccccc2C2=CCCCC2C(C)(C)C)c(C(F)(F)F)n1 (stereo not drawn) [Example 141]"
readout_value = 12

[[record]]
compound = "Cc1ccc(OC2CCCCC2)c(NC(=O)c2cn(C)nc2C(F)(F)F)c1 [Example 97]"
readout_value = 0

[[record]]
compound = "Cc1ccc(C2CCCCC2)c(NC(=O)c2cn(C)nc2C(F)F)c1 [Example 21]"
readout_value = 40

[[record]]
compound = "CC1=C(c2ccccc2NC(=O)c2cn(C)nc2C(F)(F)F)CCC1 [Example 137]"
readout_value = 83

[[record]]
compound = "Cn1cc(C(=S)Nc2ccccc2[C@@H]2C[C@H]3CC[C@@H]2C3)c(C(F)F)n1 (relative stereo) [Example 102]"
readout_value = 88

[[record]]
compound = "Cc1nn(C)c(Cl)c1C(=O)Nc1ccccc1C1CCCCCC1 [Example 107]"
readout_value = 27

[[record]]
compound = "Cn1cc(C(=O)Nc2ccccc2SC2CCCCC2)c(C(F)F)n1 [Example 44]"
readout_value = 0

[[record]]
compound = "Cn1nc(C(F)(F)F)c(C(=O)Nc2ccccc2C2CCCCCC2)c1Cl [Example 89]"
readout_value = 24

[[record]]
compound = "Cn1nc(C(F)(F)F)c(C(=O)Nc2ccccc2[C@@H]2C[C@H]3CC[C@@H]2C3)c1F (relative stereo) [Example 85]"
readout_value = 28

[[record]]
compound = "Cn1cc(C(=O)Nc2ccccc2CC2CCCCCC2)c(C(F)(F)F)n1 [Example 146]"
readout_value = 0

[[record]]
compound = "Cn1cc(C(=O)Nc2ccccc2C2CCCCCC2)c(C(F)F)n1 [Example 9]"
readout_value = 94

[[record]]
compound = "Cc1ccccc1NC(=O)c1c(C)nn(C)c1C [Compound H, reference compound]"
readout_value = 5

[[record]]
compound = "Cc1ccc(NC(=O)c2cn(C)nc2C(F)(F)F)c(C2CCCCC2)c1 [Example 29]"
readout_value = 0

[[record]]
compound = "Cc1nn(C)cc1C(=O)Nc1ccccc1C1CCCCCC1 [Example 13]"
readout_value = 63

[[record]]
compound = "Cc1nn(C)cc1C(=O)Nc1ccccc1C1CCCC1 [Example 6]"
readout_value = 0


Origin of values: patent US5223526A
